The values you see were collected from the Human Domainome abundance scans (Beltran et al. 2025).

Record form. Attribute: abundance fitness. Fill in for each entry.
B1: Transcriptional repressor p66-beta, residues 415 to 455; numbered along this chain, Q8WXI9 (parent)
chain: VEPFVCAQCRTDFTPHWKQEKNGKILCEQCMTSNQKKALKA

variants of: B1; experiment: abundance fitness (aPCA) (normalised: wild type 0, dead -1); higher = more abundant; growth selection in yeast, the domain comes from the species named; details: Homo sapiens
# output: bare number, no unit

I am curious: what abundance fitness value has been reported for `W17C` ? 0.149

Would you kindly repeat that for `F4A` ? 0.101

Would you kindly repeat that for `A38W` ? -0.398

Would you kindly repeat that for `W17I` ? 0.013

Would you kindly repeat that for `F4Y` ? -0.14

Would you kindly repeat that for `E20G` ? -0.034

Would you kindly repeat that for `K36M` ? -0.078

Would you kindly repeat that for `T14W` ? -0.521

Would you kindly repeat that for `C6V` ? -1.08

Would you kindly repeat that for `P15W` ? -0.401

Would you kindly repeat that for `Q35P` ? -0.223

Would you kindly repeat that for `T32Q` ? -0.173

Would you kindly repeat that for `Q8E` ? 0.849

Would you kindly repeat that for `N34V` ? -0.223

Would you kindly repeat that for `W17D` ? 0.285

Would you kindly repeat that for `F4G` ? 0.044

Would you kindly repeat that for `E2A` ? -0.352

Would you kindly repeat that for `A38E` ? 0.167

Would you kindly repeat that for `A38T` ? 0.687

Would you kindly repeat that for `F13V` ? 0.337

Would you kindly repeat that for `F4I` ? 0.125

Would you kindly repeat that for `Q29L` ? -0.042
